# Test system: E. coli
# test context: MH media, 5 × 10^5 CFU/mL, 24 h at 37 °C, read at 595 nm; MIC = growth reduced to 10%; average ± SE, 3 biological repeats in triplicates
Residues, ends and D or L forms follow the SMILES beside them.
measured endpoint: MIC Values, E. coli

Query string: Please report the recorded MIC Values, E. coli for C[C@H](N)C(=O)N[C@@H](CCCCN)C(=O)N[C@@H](CCCNC(=N)N)C(=O)N[C@@H](Cc1c[nH]cn1)C(=O)N[C@@H](Cc1c[nH]cn1)C(=O)NCC(=O)N[C@@H](Cc1ccc(O)cc1)C(=O)N[C@@H](CCCCN)C(=O)N[C@@H](CCCNC(=N)N)C(=O)N[C@@H](CCCCN)C(=O)N[C@@H](Cc1ccccc1)C(=O)N[C@@H](CCCCN)C(N)=O [P-113 H12K] (H-AKRHHGYKRKFK-NH2) .
Result string: >200 µM

Query string: Please report the recorded MIC Values, E. coli for CC[C@H](C)[C@H](NC(=O)[C@H](CCCCN)NC(=O)[C@H](CCCCN)NC(=O)[C@H](Cc1ccccc1)NC(=O)[C@H](CC(C)C)NC(=O)[C@H](CCCCN)NC(=O)[C@@H](N)Cc1ccccc1)C(=O)N[C@@H](CC(C)C)C(=O)N[C@@H](CCCCN)C(=O)N[C@@H](Cc1ccc(O)cc1)C(=O)N[C@@H](CC(C)C)C(N)=O [BP100 F1K] .
Result string: 3 ± 1 µM
